biological target: Neu5Ac(a2-3)Gal(b1-4)[Fuc(a1-3)]GlcNAc; test: glycan array binding signal (z-score within array); higher = stronger binding; conditions: glycan notation: IUPAC condensed, linker removed
The full list was thinned out, with the strongest signals kept by preference.

binder: CVN (Nostoc ellipsosporum), P81180 (protein) LGKFSQTCYNSAIQGSVLTSTCERTNGGYNTSSIDLNSVIENVDGSLKWQPSNFIETCRNTQLAGSSELAAECKTRAQQFVSTKINLDDHIANIDGTLKYE
glycan array binding signal (z-score): -0.268
--
binder: XTP3-B-MRH1 (Homo sapiens), Q96DZ1 (protein) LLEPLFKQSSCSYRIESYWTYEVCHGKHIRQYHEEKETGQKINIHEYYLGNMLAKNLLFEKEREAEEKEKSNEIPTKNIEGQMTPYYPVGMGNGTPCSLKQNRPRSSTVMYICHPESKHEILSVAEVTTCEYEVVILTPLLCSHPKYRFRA
glycan array binding signal (z-score): -0.083
--
binder: Adiponectin (Rattus norvegicus), Q8K3R4 (protein) MLLLQALLFLLILPSHEGITATEGPGALVPPPKETCAGWMAGIPGYPGHNGIPGRDGRDGTPGEKGEKGDAGVLGPKGDPGDAGMTGAEGPRGFPGTPGRKGEPGEAAYMYHSAFSVGLETRVTVPNVPIRFTKIFYNQQNHYDGSTGKFHCNIPGLYYFSYHITVYMKDVKVSLFKKDKAVLFTYDQYQEKNVDQASGSMLLHLEVGDQVWLQVYGEGDNNGLYADNVNDSTFTGFLLYHDTN
glycan array binding signal (z-score): 0.007
